Molecular target: furin, P09958;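 further: purified furin at 1:10 enzyme:substrate in 50 mM HEPES pH 7.5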
Sequence (P09958 whole entry): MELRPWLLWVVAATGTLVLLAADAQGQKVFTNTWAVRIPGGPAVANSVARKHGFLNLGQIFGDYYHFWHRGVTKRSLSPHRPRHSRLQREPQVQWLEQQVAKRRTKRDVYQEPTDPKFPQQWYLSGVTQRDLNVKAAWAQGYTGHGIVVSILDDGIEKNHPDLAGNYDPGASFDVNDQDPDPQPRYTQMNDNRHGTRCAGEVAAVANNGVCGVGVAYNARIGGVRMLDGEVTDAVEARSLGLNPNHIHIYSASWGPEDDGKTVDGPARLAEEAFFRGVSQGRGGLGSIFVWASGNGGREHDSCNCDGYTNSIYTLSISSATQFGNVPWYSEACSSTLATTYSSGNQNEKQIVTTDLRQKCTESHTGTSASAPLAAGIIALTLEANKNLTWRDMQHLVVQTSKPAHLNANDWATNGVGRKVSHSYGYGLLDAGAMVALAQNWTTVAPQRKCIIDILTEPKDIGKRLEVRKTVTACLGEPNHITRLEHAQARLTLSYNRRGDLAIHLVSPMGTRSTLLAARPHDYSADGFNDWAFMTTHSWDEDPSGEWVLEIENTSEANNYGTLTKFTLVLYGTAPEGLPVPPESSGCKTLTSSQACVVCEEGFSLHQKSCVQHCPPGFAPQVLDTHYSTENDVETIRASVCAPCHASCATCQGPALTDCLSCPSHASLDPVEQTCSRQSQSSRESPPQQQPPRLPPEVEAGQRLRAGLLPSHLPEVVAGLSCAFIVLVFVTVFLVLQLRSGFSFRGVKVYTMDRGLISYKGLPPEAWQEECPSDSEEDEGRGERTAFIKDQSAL
Assay: furin cleavage Z-score vs untreated control; higher = more cleavage, active = 3.5 or more, inactive = 1 or less, 8 variable residues between constant flanks
Settings: 15 min
The list shows a part of the results. How many sequences the whole screen found active is unknown.
Could you label it yes (1) if measured furin cleavage Z-score is 5 or higher, and no (0) otherwise?

Consider the following illustrative entries.
sequenceEntry	cat
CARTKRNAKIAGNASASA [FS-2384]	yes (1)
CARTKRFLSYAGNASASA [FS-2826]	yes (1)
CARNQRDAWIAGNASASA [FS-2731]	no (0)

Next:
Q: Quick check: does CAKPGRRGRAAGNASASA [FS-452] have furin cleavage Z-score greater than or equal to 5?
Result: yes (1)
